pIC50: −log10 of the molar value.
Would you kindly list pIC50 for each of these compounds?

Prompt: // fetch pIC50; item: "CC(C)(C)N/C(=N/C(=O)c1ccc(C(F)(F)F)cc1)Nc1cc(C(F)F)[nH]n1" ; system: F1F0-ATPase (Bos taurus, UniProt P13621)
Response: > 5.00

Prompt: // fetch pIC50; item: "CC(C)CN/C(=N/C(=O)c1ccc(F)c(F)c1)Nc1cc(-c2ccc(Cl)cc2)n[nH]1" ; system: F1F0-ATPase (Bos taurus, UniProt P13621)
Response: > 5.00

Prompt: // fetch pIC50; item: CC(N/C(=N/C(=O)c1ccc(Cl)cc1)Nc1cc(C(F)(F)F)[nH]n1)c1cccc(Cl)c1 (stereo not drawn) ; system: F1F0-ATPase (Bos taurus, UniProt P13621)
Response: > 5.00

Prompt: // fetch pIC50; item: "O=C(/N=C(/Nc1cc(F)cc(Cl)c1)Nc1cc(-c2ccc(F)cc2)[nH]n1)c1ccc(C(F)(F)F)cc1" ; system: F1F0-ATPase (Bos taurus, UniProt P13621)
Response: > 5.00

Prompt: // fetch pIC50; item: "CC(C)(C)NC(=NC(=O)c1cc(F)c(F)c(F)c1)Nc1cc(-c2ccc(F)cc2)n[nH]1" ; system: F1F0-ATPase (Bos taurus, UniProt P13621)
Response: > 5.00

Prompt: // fetch pIC50; item: COCC(C)NC(=NC(=O)c1ccc(Cl)cc1)Nc1cc(-c2cc(F)cc(F)c2)n[nH]1 (stereo not drawn) ; system: F1F0-ATPase (Bos taurus, UniProt P13621)
Response: > 5.00

Prompt: // fetch pIC50; item: "O=C(/N=C(\Nc1cc(-c2cc(F)cc(F)c2)n[nH]1)NC1CCC1)c1ccc(Cl)c(F)c1" ; system: F1F0-ATPase (Bos taurus, UniProt P13621)
Response: > 5.00

Prompt: // fetch pIC50; item: CCC(C)NC(=NC(=O)c1ccc(Cl)c(F)c1)Nc1cc(-c2cc(F)cc(F)c2)n[nH]1 (stereo not drawn) ; system: F1F0-ATPase (Bos taurus, UniProt P13621)
Response: > 5.00

Prompt: // fetch pIC50; item: CC(C)C(C)NC(=NC(=O)c1ccc(Cl)c(F)c1)Nc1cc(-c2cc(F)cc(F)c2)n[nH]1 (stereo not drawn) ; system: F1F0-ATPase (Bos taurus, UniProt P13621)
Response: > 5.00

Prompt: // fetch pIC50; item: "CC(C)N/C(=N/C(=O)c1cccc(F)c1)Nc1cc(-c2ccc(Cl)cc2)n[nH]1" ; system: F1F0-ATPase (Bos taurus, UniProt P13621)
Response: > 5.00

Prompt: // fetch pIC50; item: "O=C(/N=C(/NCc1ccc(Cl)cc1F)Nc1cc(C(F)(F)F)[nH]n1)c1ccc(F)c(F)c1" ; system: F1F0-ATPase (Bos taurus, UniProt P13621)
Response: > 5.00

Prompt: // fetch pIC50; item: "Cc1csc(CN/C(=N/C(=O)c2ccc(F)cc2)Nc2cc(C(F)(F)F)[nH]n2)n1" ; system: F1F0-ATPase (Bos taurus, UniProt P13621)
Response: > 5.00

Prompt: // fetch pIC50; item: "CC(C)(C)N/C(=N/C(=O)c1ccc(Cl)c(F)c1)Nc1cc(-c2ccccc2)[nH]n1" ; system: F1F0-ATPase (Bos taurus, UniProt P13621)
Response: > 5.00

Prompt: // fetch pIC50; item: "CC(C)(C)N/C(=N/C(=O)c1ccc(C(F)F)cc1)Nc1cc(C(F)(F)F)[nH]n1" ; system: F1F0-ATPase (Bos taurus, UniProt P13621)
Response: > 5.00

Prompt: // fetch pIC50; item: O=C(/N=C(\Nc1cc(C(F)(F)F)n[nH]1)NC1CCCOC1)c1ccc(Cl)cc1 (stereo not drawn) ; system: F1F0-ATPase (Bos taurus, UniProt P13621)
Response: > 5.00

Prompt: // fetch pIC50; item: "CC1(N/C(=N/C(=O)c2ccc(Cl)cc2)Nc2cc(C(F)(F)F)[nH]n2)CCC1" ; system: F1F0-ATPase (Bos taurus, UniProt P13621)
Response: > 5.00

Prompt: // fetch pIC50; item: "Cc1ccc(-c2cc(N/C(=N\C(=O)c3ccc(F)c(F)c3)Nc3cc(F)cc(Cl)c3)[nH]n2)cc1" ; system: F1F0-ATPase (Bos taurus, UniProt P13621)
Response: > 5.00

Prompt: // fetch pIC50; item: CC1(CNC(=NC(=O)c2ccc(Cl)c(F)c2)Nc2cc(-c3ccc(F)cc3)n[nH]2)CCCO1 (stereo not drawn) ; system: F1F0-ATPase (Bos taurus, UniProt P13621)
Response: > 5.00

Prompt: // fetch pIC50; item: "O=C(/N=C(/NCc1cccc(C(F)(F)F)c1)Nc1cc(C(F)(F)F)n[nH]1)c1ccc(Cl)cc1" ; system: F1F0-ATPase (Bos taurus, UniProt P13621)
Response: > 5.00

Prompt: // fetch pIC50; item: "O=C(/N=C(/NCc1ccc(F)cc1Cl)Nc1cc(C(F)(F)F)[nH]n1)c1ccc(F)c(F)c1" ; system: F1F0-ATPase (Bos taurus, UniProt P13621)
Response: > 5.00

Prompt: // fetch pIC50; item: "CCC(CC)NC(=NC(=O)c1ccc(Cl)c(F)c1)Nc1cc(-c2cc(F)cc(F)c2)n[nH]1" ; system: F1F0-ATPase (Bos taurus, UniProt P13621)
Response: > 5.00

Prompt: // fetch pIC50; item: "COc1ccc(C(=O)N=C(Nc2cc(-c3ccc(F)cc3)n[nH]2)NC2CCCC2)cc1" ; system: F1F0-ATPase (Bos taurus, UniProt P13621)
Response: > 5.00

Prompt: // fetch pIC50; item: "CC(C)CNC(=NC(=O)c1cccc(C#N)c1)Nc1cc(-c2ccc(Cl)cc2)n[nH]1" ; system: F1F0-ATPase (Bos taurus, UniProt P13621)
Response: > 5.00

Prompt: // fetch pIC50; item: "Cc1cc(NC(=NC(=O)c2ccc(Cl)c(F)c2)NC(C)(C)C)[nH]n1" ; system: F1F0-ATPase (Bos taurus, UniProt P13621)
Response: > 5.00

Prompt: // fetch pIC50; item: "Cc1ccc(C(=O)/N=C(\Nc2cc(C(F)(F)F)[nH]n2)NC2CCCC2)cc1" ; system: F1F0-ATPase (Bos taurus, UniProt P13621)
Response: > 5.00

Prompt: // fetch pIC50; item: "Cc1ccc(-c2cc(N/C(=N\C(=O)c3ccc(F)c(F)c3)NC(C)(C)C)[nH]n2)cc1F" ; system: F1F0-ATPase (Bos taurus, UniProt P13621)
Response: > 5.00

Prompt: // fetch pIC50; item: "CC(C)CN/C(=N/C(=O)c1cccc(S(C)(=O)=O)c1)Nc1cc(-c2ccc(F)cc2)n[nH]1" ; system: F1F0-ATPase (Bos taurus, UniProt P13621)
Response: > 5.00

Prompt: // fetch pIC50; item: "COc1ccc(C(=O)/N=C(\Nc2cc(-c3ccc(F)cc3)n[nH]2)NC(C)(C)C)c(F)c1" ; system: F1F0-ATPase (Bos taurus, UniProt P13621)
Response: > 5.00

Prompt: // fetch pIC50; item: "CC(C)(C)N/C(=N/C(=O)c1ccc(Cl)c(F)c1)Nc1cc(C(F)(F)F)[nH]n1" ; system: F1F0-ATPase (Bos taurus, UniProt P13621)
Response: > 5.00

Prompt: // fetch pIC50; item: "COc1cccc(CN/C(=N/C(=O)c2ccc(F)c(C)c2)Nc2cc(-c3ccc(F)cc3)n[nH]2)c1" ; system: F1F0-ATPase (Bos taurus, UniProt P13621)
Response: > 5.00

====

metric: IC50

Prompt: // fetch IC50; item: CC(C)NC(=NC(=O)c1ccc(Cl)c(F)c1)Nc1cc(-c2ccc(Cl)cc2)n[nH]1 [Compound A-383] ; system: F1F0-ATPase (Bos taurus)
Response: < 10 µM

Prompt: // fetch IC50; item: CCc1ccc(-c2cc(N/C(=N\C(=O)c3ccc(C(F)(F)F)cc3)NC(C)(C)C)[nH]n2)cc1 [Compound A-432] ; system: F1F0-ATPase (Bos taurus)
Response: < 10 µM

Prompt: // fetch IC50; item: COc1cccc(C(=O)N=C(Nc2cc(-c3ccc(F)cc3)n[nH]2)NC(C)(C)C)c1 [Compound A-540] ; system: F1F0-ATPase (Bos taurus)
Response: < 10 µM

Prompt: // fetch IC50; item: O=C(N=C(NCC1CCO1)Nc1cc(-c2ccc(F)cc2)n[nH]1)c1ccc(Cl)c(F)c1 (stereo not shown) [Compound A-215] ; system: F1F0-ATPase (Bos taurus)
Response: > 10 µM

Prompt: // fetch IC50; item: O=C(/N=C(/Nc1cc(F)cc(Cl)c1)Nc1cc(-c2ccc(F)cc2)n[nH]1)c1cccc(F)c1 [Compound A-458] ; system: F1F0-ATPase (Bos taurus)
Response: < 10 µM

Prompt: // fetch IC50; item: C[C@H](N/C(=N\C(=O)c1ccc(C(F)(F)F)cc1)Nc1cc(C(F)(F)F)n[nH]1)C1CCCCC1 [Compound A-94] ; system: F1F0-ATPase (Bos taurus)
Response: < 10 µM

Prompt: // fetch IC50; item: COCC(C)NC(=NC(=O)c1ccc(C#N)cc1)Nc1cc(-c2ccc(F)cc2)n[nH]1 (stereo not shown) [Compound A-528] ; system: F1F0-ATPase (Bos taurus)
Response: < 10 µM

These data points were gathered from patent US9139532B2.
